# Assay System: UniProtKB P00918
# Test Method Notes: fluorescent thermal shift assay (FTSA), CAII
# Type: binding
# Particulars: converted from Kd_intr, 37 °C, independent of pH

{"Compound": "COC(=O)c1cc(S(N)(=O)=O)c(SC2CCCCC2)cc1Br [Compound 4b]", "Reading Qualifier": "=", "ΔGintr CAII [kcal/mol]": -13.7}
{"Compound": "COC(=O)c1cc(S(N)(=O)=O)c(Cl)cc1Cl [Compound 1, Methyl 2,4-dichloro-5-sulfamoyl-benzoate]", "Reading Qualifier": "=", "ΔGintr CAII [kcal/mol]": -13.3}
{"Compound": "COC(=O)c1cc(S(N)(=O)=O)c(Cl)cc1S(=O)(=O)CCc1ccccc1 [Compound 9d]", "Reading Qualifier": "=", "ΔGintr CAII [kcal/mol]": -15}
{"Compound": "COC(=O)c1cc(S(N)(=O)=O)c(Cl)cc1S(=O)(=O)c1ccccc1 [Compound 9a]", "Reading Qualifier": "=", "ΔGintr CAII [kcal/mol]": -15.1}
{"Compound": "COC(=O)c1cc(S(N)(=O)=O)c(S(=O)(=O)Cc2ccccc2)cc1Cl [Compound 7c]", "Reading Qualifier": "≥", "ΔGintr CAII [kcal/mol]": -9.78}
{"Compound": "COC(=O)c1cc(S(N)(=O)=O)c(Cl)cc1SCCc1ccccc1 [Compound 5d]", "Reading Qualifier": "=", "ΔGintr CAII [kcal/mol]": -14.5}
{"Compound": "COC(=O)c1cc(S(N)(=O)=O)c(Cl)cc1Sc1ccccc1 [Compound 5a]", "Reading Qualifier": "=", "ΔGintr CAII [kcal/mol]": -14.5}
{"Compound": "COC(=O)c1cc(S(N)(=O)=O)c(Br)cc1Br [Compound 2, Methyl 2,4-dibromo-5-sulfamoyl-benzoate]", "Reading Qualifier": "=", "ΔGintr CAII [kcal/mol]": -13}
{"Compound": "COC(=O)c1cc(S(N)(=O)=O)c(Cl)cc1S(=O)(=O)Cc1ccccc1 [Compound 9c]", "Reading Qualifier": "=", "ΔGintr CAII [kcal/mol]": -14}
{"Compound": "COC(=O)c1cc(S(N)(=O)=O)c(Cl)cc1Sc1cccc2ccccc12 [Compound 5f]", "Reading Qualifier": "=", "ΔGintr CAII [kcal/mol]": -13.8}
{"Compound": "COC(=O)c1cc(S(N)(=O)=O)c(SC2CCCCCCCCCCC2)cc1Cl [Compound 3e]", "Reading Qualifier": "=", "ΔGintr CAII [kcal/mol]": -13.3}
{"Compound": "COC(=O)c1cc(S(N)(=O)=O)c(Cl)cc1S(=O)(=O)C1CCCCC1 [Compound 9b]", "Reading Qualifier": "=", "ΔGintr CAII [kcal/mol]": -15.3}
{"Compound": "COC(=O)c1cc(S(N)(=O)=O)c(Cl)cc1S(=O)(=O)c1cccc2ccccc12 [Compound 9f]", "Reading Qualifier": "=", "ΔGintr CAII [kcal/mol]": -15.2}
{"Compound": "COC(=O)c1cc(S(N)(=O)=O)c(SCc2ccccc2)cc1Cl [Compound 3c]", "Reading Qualifier": "=", "ΔGintr CAII [kcal/mol]": -13.9}
{"Compound": "COC(=O)c1cc(S(N)(=O)=O)c(S(=O)(=O)CCc2ccccc2)cc1Cl [Compound 7d]", "Reading Qualifier": "≥", "ΔGintr CAII [kcal/mol]": -9.73}
{"Compound": "COC(=O)c1cc(S(N)(=O)=O)c(Cl)cc1SC1CCCCC1 [Compound 5b]", "Reading Qualifier": "=", "ΔGintr CAII [kcal/mol]": -14.8}
{"Compound": "COC(=O)c1cc(S(N)(=O)=O)c(S(=O)(=O)C2CCCCC2)cc1Br [Compound 8b]", "Reading Qualifier": "≥", "ΔGintr CAII [kcal/mol]": -9.87}

---

# Assay System: CAIX (Homo sapiens, UniProt Q16790)
# Test Method Notes: fluorescent thermal shift assay (FTSA), CAIX
# Assay type: binding
# Particulars: pH 7
Think of -10 kcal/mol as a floor: if ΔGobs CAIX stands on it or above, it is Y; beneath it, N.

{"Compound": "COC(=O)c1cc(S(N)(=O)=O)c(Cl)cc1S(=O)(=O)C1CCCCC1", "Assigned Class": "N"}
{"Compound": "COC(=O)c1cc(S(N)(=O)=O)c(Cl)cc1S(=O)(=O)c1ccccc1", "Assigned Class": "N"}
{"Compound": "COC(=O)c1cc(S(N)(=O)=O)c(Br)cc1S(=O)(=O)c1ccccc1 [Compound 10a]", "Assigned Class": "N"}
{"Compound": "COC(=O)c1cc(S(N)(=O)=O)c(S(=O)(=O)Cc2ccccc2)cc1Cl", "Assigned Class": "Y"}
{"Compound": "COC(=O)c1cc(S(N)(=O)=O)c(Cl)cc1SC1CCCCC1", "Assigned Class": "N"}
{"Compound": "COC(=O)c1cc(S(N)(=O)=O)c(SCc2ccccc2)cc1Cl", "Assigned Class": "N"}
{"Compound": "COC(=O)c1cc(S(N)(=O)=O)c(Cl)cc1Cl [Compound 1, Methyl 2,4-dichloro-5-sulfamoyl-benzoate]", "Assigned Class": "N"}
{"Compound": "COC(=O)c1cc(S(N)(=O)=O)c(Cl)cc1S(=O)(=O)CCc1ccccc1", "Assigned Class": "N"}
{"Compound": "COC(=O)c1cc(S(N)(=O)=O)c(SC2CCCCC2)cc1Br", "Assigned Class": "N"}
{"Compound": "COC(=O)c1cc(S(N)(=O)=O)c(Cl)cc1Sc1ccccc1", "Assigned Class": "N"}
{"Compound": "COC(=O)c1cc(S(N)(=O)=O)c(S(=O)(=O)C2CCCCC2)cc1Br", "Assigned Class": "Y"}
{"Compound": "COC(=O)c1cc(S(N)(=O)=O)c(S(=O)(=O)CCc2ccccc2)cc1Cl", "Assigned Class": "Y"}
{"Compound": "COC(=O)c1cc(S(N)(=O)=O)c(Br)cc1Sc1ccccc1", "Assigned Class": "N"}
{"Compound": "COC(=O)c1cc(S(N)(=O)=O)c(SCCc2ccccc2)cc1Cl", "Assigned Class": "N"}
{"Compound": "COC(=O)c1cc(S(N)(=O)=O)c(Cl)cc1S(=O)(=O)c1cccc2ccccc12", "Assigned Class": "N"}
{"Compound": "COC(=O)c1cc(S(N)(=O)=O)c(S(=O)(=O)C2CCCCC2)cc1Cl", "Assigned Class": "Y"}
{"Compound": "COC(=O)c1cc(S(N)(=O)=O)c(SC2CCCCCCCCCCC2)cc1Cl", "Assigned Class": "N"}

---

# Assay System: CAVA (Homo sapiens, UniProt P35218)
# Sequence (P35218 39-305): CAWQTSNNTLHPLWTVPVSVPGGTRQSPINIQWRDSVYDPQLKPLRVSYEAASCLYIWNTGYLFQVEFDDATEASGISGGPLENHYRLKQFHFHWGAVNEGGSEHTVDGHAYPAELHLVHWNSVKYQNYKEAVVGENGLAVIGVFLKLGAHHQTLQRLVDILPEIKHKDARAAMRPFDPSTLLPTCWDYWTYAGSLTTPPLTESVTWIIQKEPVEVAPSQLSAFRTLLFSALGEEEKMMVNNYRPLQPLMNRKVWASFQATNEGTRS
# Test Method Notes: fluorescent thermal shift assay (FTSA), CAVA
# Format: binding
# Particulars: converted from Kd_obs, 37 °C, pH 7.0, FTSA
Reported ΔGobs CAVA values for the following compounds.

{"Compound": "COC(=O)c1cc(S(N)(=O)=O)c(SC2CCCCCCCCCCC2)cc1Cl [Compound 3e]", "Assay System": "CAVA (Homo sapiens, UniProt P35218)", "Reading Qualifier": "≥", "ΔGobs CAVA / kcal/mol": -5.26}
{"Compound": "COC(=O)c1cc(S(N)(=O)=O)c(Cl)cc1S(=O)(=O)C1CCCCC1 [Compound 9b]", "Assay System": "CAVA (Homo sapiens, UniProt P35218)", "Reading Qualifier": "=", "ΔGobs CAVA / kcal/mol": -8.94}
{"Compound": "COC(=O)c1cc(S(N)(=O)=O)c(Br)cc1Sc1ccccc1 [Compound 6a]", "Assay System": "CAVA (Homo sapiens, UniProt P35218)", "Reading Qualifier": "=", "ΔGobs CAVA / kcal/mol": -5.76}
{"Compound": "COC(=O)c1cc(S(N)(=O)=O)c(S(=O)(=O)CCc2ccccc2)cc1Cl [Compound 7d]", "Assay System": "CAVA (Homo sapiens, UniProt P35218)", "Reading Qualifier": "≥", "ΔGobs CAVA / kcal/mol": -5.26}
{"Compound": "COC(=O)c1cc(S(N)(=O)=O)c(SCc2ccccc2)cc1Cl [Compound 3c]", "Assay System": "CAVA (Homo sapiens, UniProt P35218)", "Reading Qualifier": "≥", "ΔGobs CAVA / kcal/mol": -5.26}
{"Compound": "COC(=O)c1cc(S(N)(=O)=O)c(S(=O)(=O)C2CCCCC2)cc1Cl [Compound 7b]", "Assay System": "CAVA (Homo sapiens, UniProt P35218)", "Reading Qualifier": "=", "ΔGobs CAVA / kcal/mol": -5.66}
{"Compound": "COC(=O)c1cc(S(N)(=O)=O)c(SCCc2ccccc2)cc1Cl [Compound 3d]", "Assay System": "CAVA (Homo sapiens, UniProt P35218)", "Reading Qualifier": "=", "ΔGobs CAVA / kcal/mol": -5.59}
{"Compound": "COC(=O)c1cc(S(N)(=O)=O)c(Cl)cc1Sc1ccccc1 [Compound 5a]", "Assay System": "CAVA (Homo sapiens, UniProt P35218)", "Reading Qualifier": "≥", "ΔGobs CAVA / kcal/mol": -5.26}
{"Compound": "COC(=O)c1cc(S(N)(=O)=O)c(S(=O)(=O)C2CCCCC2)cc1Br [Compound 8b]", "Assay System": "CAVA (Homo sapiens, UniProt P35218)", "Reading Qualifier": "≥", "ΔGobs CAVA / kcal/mol": -5.26}
{"Compound": "COC(=O)c1cc(S(N)(=O)=O)c(SC2CCCCC2)cc1Br [Compound 4b]", "Assay System": "CAVA (Homo sapiens, UniProt P35218)", "Reading Qualifier": "≥", "ΔGobs CAVA / kcal/mol": -5.26}
{"Compound": "COC(=O)c1cc(S(N)(=O)=O)c(Cl)cc1Cl [Compound 1, Methyl 2,4-dichloro-5-sulfamoyl-benzoate]", "Assay System": "CAVA (Homo sapiens, UniProt P35218)", "Reading Qualifier": "=", "ΔGobs CAVA / kcal/mol": -7.34}
{"Compound": "COC(=O)c1cc(S(N)(=O)=O)c(Cl)cc1S(=O)(=O)CCc1ccccc1 [Compound 9d]", "Assay System": "CAVA (Homo sapiens, UniProt P35218)", "Reading Qualifier": "=", "ΔGobs CAVA / kcal/mol": -9.51}
{"Compound": "COC(=O)c1cc(S(N)(=O)=O)c(S(=O)(=O)Cc2ccccc2)cc1Cl [Compound 7c]", "Assay System": "CAVA (Homo sapiens, UniProt P35218)", "Reading Qualifier": "≥", "ΔGobs CAVA / kcal/mol": -5.26}
{"Compound": "COC(=O)c1cc(S(N)(=O)=O)c(Cl)cc1SC1CCCCC1 [Compound 5b]", "Assay System": "CAVA (Homo sapiens, UniProt P35218)", "Reading Qualifier": "=", "ΔGobs CAVA / kcal/mol": -7.65}
{"Compound": "COC(=O)c1cc(S(N)(=O)=O)c(SC2CCCCC2)cc1Cl [Compound 3b]", "Assay System": "CAVA (Homo sapiens, UniProt P35218)", "Reading Qualifier": "=", "ΔGobs CAVA / kcal/mol": -5.66}
{"Compound": "COC(=O)c1cc(S(N)(=O)=O)c(Cl)cc1Sc1cccc2ccccc12 [Compound 5f]", "Assay System": "CAVA (Homo sapiens, UniProt P35218)", "Reading Qualifier": "=", "ΔGobs CAVA / kcal/mol": -5.71}
